Tested on: E. coli 14384
Test: Antibiotic MIC by microdilution with or without sub-MIC polymer
Assay type: cell-based, Escherichia coli
Conditions: E. coli 14384; polymer at ½ of its MIC
For each entry below, report its Antibiotic MIC in presence of C12K(NC8K)7NH2 (SEQ ID NO: 4), +½ MIC value.

Query: Antibiotic MIC in presence of C12K(NC8K)7NH2 (SEQ ID NO: 4), +½ MIC; subject: CC[C@H]1OC(=O)[C@H](C)[C@@H](O[C@H]2C[C@@](C)(OC)[C@@H](O)[C@H](C)O2)[C@H](C)[C@@H](O[C@@H]2O[C@H](C)C[C@H](N(C)C)[C@H]2O)[C@](C)(O)C[C@@H](C)C(=O)[C@H](C)[C@@H](O)[C@]1(C)O
8 to 16 µg/mL

Query: Antibiotic MIC in presence of C12K(NC8K)7NH2 (SEQ ID NO: 4), +½ MIC; subject: CCN1CCN(C(=O)N[C@@H](C(=O)N[C@@H]2C(=O)N3[C@@H]2SC(C)(C)[C@@H]3C(=O)O)c2ccccc2)C(=O)C1=O
64 to 128 µg/mL

Query: Antibiotic MIC in presence of C12K(NC8K)7NH2 (SEQ ID NO: 4), +½ MIC; subject: CC1(C)S[C@@H]2[C@H](NC(=O)Cc3ccccc3)C(=O)N2[C@H]1C(=O)O
>512 µg/mL

Query: Antibiotic MIC in presence of C12K(NC8K)7NH2 (SEQ ID NO: 4), +½ MIC; subject: CN(C)[C@@H]1C(O)=C(C(N)=O)C(=O)[C@@]2(O)C(O)=C3C(=O)c4c(O)cccc4[C@@](C)(O)[C@H]3C[C@@H]12
64 µg/mL

Query: Antibiotic MIC in presence of C12K(NC8K)7NH2 (SEQ ID NO: 4), +½ MIC; subject: Cc1onc(-c2ccccc2)c1C(=O)N[C@@H]1C(=O)N2[C@@H]1SC(C)(C)[C@@H]2C(=O)O
>512 µg/mL

----------
For each entry below, report its Antibiotic MIC in presence of C12K(NC8K)7NH2 (SEQ ID NO: 4), +⅓ MIC value.
Test system: E. coli K-12 efflux knockout mutant
Format: cell-based, Escherichia coli
Details: E. coli AG100A (efflux−); polymer at ⅓ of its MIC (Table 16)

Query: Antibiotic MIC in presence of C12K(NC8K)7NH2 (SEQ ID NO: 4), +⅓ MIC; subject: CN(C)[C@@H]1C(O)=C(C(N)=O)C(=O)[C@@]2(O)C(O)=C3C(=O)c4c(O)cccc4[C@@](C)(O)[C@H]3C[C@@H]12 [Tetracycline, tetracycline]
0.5 µg/mL

Query: Antibiotic MIC in presence of C12K(NC8K)7NH2 (SEQ ID NO: 4), +⅓ MIC; subject: CC1(C)S[C@@H]2[C@H](NC(=O)Cc3ccccc3)C(=O)N2[C@H]1C(=O)O [Penicillin G, penicillin G]
8 µg/mL

Query: Antibiotic MIC in presence of C12K(NC8K)7NH2 (SEQ ID NO: 4), +⅓ MIC; subject: Cc1onc(-c2ccccc2)c1C(=O)N[C@@H]1C(=O)N2[C@@H]1SC(C)(C)[C@@H]2C(=O)O [Oxacillin, oxacillin]
0.25 µg/mL

Query: Antibiotic MIC in presence of C12K(NC8K)7NH2 (SEQ ID NO: 4), +⅓ MIC; subject: CCN1CCN(C(=O)N[C@@H](C(=O)N[C@@H]2C(=O)N3[C@@H]2SC(C)(C)[C@@H]3C(=O)O)c2ccccc2)C(=O)C1=O [Piperacillin, piperacillin]
<0.13 µg/mL

Query: Antibiotic MIC in presence of C12K(NC8K)7NH2 (SEQ ID NO: 4), +⅓ MIC; subject: CC[C@H]1OC(=O)[C@H](C)[C@@H](O[C@H]2C[C@@](C)(OC)[C@@H](O)[C@H](C)O2)[C@H](C)[C@@H](O[C@@H]2O[C@H](C)C[C@H](N(C)C)[C@H]2O)[C@](C)(O)C[C@@H](C)C(=O)[C@H](C)[C@@H](O)[C@]1(C)O [Erythromycin, erythromycin]
2 to 4 µg/mL

----------
Tested on: E. coli 16329
Type: cell-based, Escherichia coli
Conditions: E. coli 16329; no polymer (None), Table 10
For each entry below, report its Antibiotic MIC value.
Reply with just the number (in µg/mL).

Test system E. coli 16329; read-out Antibiotic MIC; what value for CC1(C)S[C@@H]2[C@H](NC(=O)Cc3ccccc3)C(=O)N2[C@H]1C(=O)O ?
512

Test system E. coli 16329; read-out Antibiotic MIC; what value for O=C(O)c1cn(C2CC2)c2cc(N3CCNCC3)c(F)cc2c1=O ?
64

Test system E. coli 16329; read-out Antibiotic MIC; what value for CCN1CCN(C(=O)N[C@@H](C(=O)N[C@@H]2C(=O)N3[C@@H]2SC(C)(C)[C@@H]3C(=O)O)c2ccccc2)C(=O)C1=O ?
256

----------
Test system: S. aureus 15819
Assay: Antibiotic MIC by microdilution with or without sub-MIC polymer
Format: cell-based, Staphylococcus aureus
Conditions: S. aureus 15819; +½ MIC (3.12 μM) C12KKNC12KNH2
Experimental readout: Antibiotic MIC (µg/mL)
Reply with just the number (in µg/mL).

Query: Antibiotic MIC; subject: CC1(C)S[C@@H]2[C@H](NC(=O)Cc3ccccc3)C(=O)N2[C@H]1C(=O)O [Penicillin G, penicillin G]
2

Query: Antibiotic MIC; subject: CC[C@H]1OC(=O)[C@H](C)[C@@H](O[C@H]2C[C@@](C)(OC)[C@@H](O)[C@H](C)O2)[C@H](C)[C@@H](O[C@@H]2O[C@H](C)C[C@H](N(C)C)[C@H]2O)[C@](C)(O)C[C@@H](C)C(=O)[C@H](C)[C@@H](O)[C@]1(C)O [Erythromycin, erythromycin]
0.5

Query: Antibiotic MIC; subject: CN(C)[C@@H]1C(O)=C(C(N)=O)C(=O)[C@@]2(O)C(O)=C3C(=O)c4c(O)cccc4[C@@](C)(O)[C@H]3C[C@@H]12 [Tetracycline, tetracycline]
0.5

Query: Antibiotic MIC; subject: Cc1onc(-c2ccccc2)c1C(=O)N[C@@H]1C(=O)N2[C@@H]1SC(C)(C)[C@@H]2C(=O)O [Oxacillin, oxacillin]
2

Query: Antibiotic MIC; subject: CCN1CCN(C(=O)N[C@@H](C(=O)N[C@@H]2C(=O)N3[C@@H]2SC(C)(C)[C@@H]3C(=O)O)c2ccccc2)C(=O)C1=O [Piperacillin, piperacillin]
4

----------
Tested on: S. aureus 17314
Assay: Antibiotic MIC by microdilution with or without sub-MIC polymer
Assay type: cell-based, Staphylococcus aureus
Settings: S. aureus 17314; no polymer (None), Table 12
Experimental readout: Antibiotic MIC (µg/mL)
Reply with just the number (in µg/mL).

Query: Antibiotic MIC; subject: O=C(O)c1cn(C2CC2)c2cc(N3CCNCC3)c(F)cc2c1=O [Ciprofloxacin, ciprofloxacin]
128

Query: Antibiotic MIC; subject: CCN1CCN(C(=O)N[C@@H](C(=O)N[C@@H]2C(=O)N3[C@@H]2SC(C)(C)[C@@H]3C(=O)O)c2ccccc2)C(=O)C1=O [Piperacillin, piperacillin]
128

Query: Antibiotic MIC; subject: Cc1onc(-c2ccccc2)c1C(=O)N[C@@H]1C(=O)N2[C@@H]1SC(C)(C)[C@@H]2C(=O)O [Oxacillin, oxacillin]
0.25

Query: Antibiotic MIC; subject: CC1(C)S[C@@H]2[C@H](NC(=O)Cc3ccccc3)C(=O)N2[C@H]1C(=O)O [Penicillin G, penicillin G]
128

Query: Antibiotic MIC; subject: CC[C@H]1OC(=O)[C@H](C)[C@@H](O[C@H]2C[C@@](C)(OC)[C@@H](O)[C@H](C)O2)[C@H](C)[C@@H](O[C@@H]2O[C@H](C)C[C@H](N(C)C)[C@H]2O)[C@](C)(O)C[C@@H](C)C(=O)[C@H](C)[C@@H](O)[C@]1(C)O [Erythromycin, erythromycin]
1

----------
System: MRSA 15903
Experiment: microbe, parasite or virus in culture
Assay type: cell-based, Staphylococcus aureus
Conditions: S. aureus CI-15903; +polymer (½ MIC) C12(5-ene)KKNC12KNH2
Experimental readout: MIC
Answer with the figure and its unit, nothing else.

Query: MIC; subject: CCN1CCN(C(=O)N[C@@H](C(=O)N[C@@H]2C(=O)N3[C@@H]2SC(C)(C)[C@@H]3C(=O)O)c2ccccc2)C(=O)C1=O
0.25 µg/mL

Query: MIC; subject: CC[C@H]1OC(=O)[C@H](C)[C@@H](O[C@H]2C[C@@](C)(OC)[C@@H](O)[C@H](C)O2)[C@H](C)[C@@H](O[C@@H]2O[C@H](C)C[C@H](N(C)C)[C@H]2O)[C@](C)(O)C[C@@H](C)C(=O)[C@H](C)[C@@H](O)[C@]1(C)O
0.1 µg/mL

Query: MIC; subject: CN(C)[C@@H]1C(O)=C(C(N)=O)C(=O)[C@@]2(O)C(O)=C3C(=O)c4c(O)cccc4[C@@](C)(O)[C@H]3C[C@@H]12
0.06 µg/mL

Query: MIC; subject: CC1(C)S[C@@H]2[C@H](NC(=O)Cc3ccccc3)C(=O)N2[C@H]1C(=O)O
0.25 µg/mL

Query: MIC; subject: Cc1onc(-c2ccccc2)c1C(=O)N[C@@H]1C(=O)N2[C@@H]1SC(C)(C)[C@@H]2C(=O)O
0.25 µg/mL

Query: MIC; subject: O=C(O)c1cn(C2CC2)c2cc(N3CCNCC3)c(F)cc2c1=O
0.25 µg/mL
